Data provenance: paper PMC6062231

testTarget: HtrA2/Omi (Homo sapiens)
Sequence (O43464 134-458): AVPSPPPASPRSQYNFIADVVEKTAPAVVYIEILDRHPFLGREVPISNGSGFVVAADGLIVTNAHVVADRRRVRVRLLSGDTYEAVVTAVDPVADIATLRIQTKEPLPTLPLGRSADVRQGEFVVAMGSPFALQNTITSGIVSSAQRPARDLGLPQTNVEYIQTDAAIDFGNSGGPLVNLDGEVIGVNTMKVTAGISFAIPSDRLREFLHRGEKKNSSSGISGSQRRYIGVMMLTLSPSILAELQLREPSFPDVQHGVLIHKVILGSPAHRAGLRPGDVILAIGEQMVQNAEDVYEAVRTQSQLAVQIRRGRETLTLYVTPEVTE
experimentalDetails: HtrA2/Omi fluorescence-based biochemical assay
measurementSetup: read-out: IC50 HtrA2/Omi; fluorescent substrate peptide 10 μM; Fig. 1C
reportedMetric: pIC50
Conceptually, pIC50 converts a concentration in mol/L into minus its log10.

Ask: Using the record for O=C1C(=Cc2ccc(-c3ccccc3[N+](=O)[O-])o2)C(=O)N(c2ccccc2)C(=S)N1c1ccccc1 , report its pIC50.
Result: 4.96
